The measured values listed here are drawn from patent US20220411372A1.

- measured on: β-catenin/BCL9 PPI (Homo sapiens)
- Construct: Full-length β-catenin (residues 1-781) were cloned into a pET-28b vector; made in house; host or cells: E. coli BL21 DE3 (β-catenin); BCL9 peptide synthesized by InnoPep Inc
- Sequence (P35222 1-781): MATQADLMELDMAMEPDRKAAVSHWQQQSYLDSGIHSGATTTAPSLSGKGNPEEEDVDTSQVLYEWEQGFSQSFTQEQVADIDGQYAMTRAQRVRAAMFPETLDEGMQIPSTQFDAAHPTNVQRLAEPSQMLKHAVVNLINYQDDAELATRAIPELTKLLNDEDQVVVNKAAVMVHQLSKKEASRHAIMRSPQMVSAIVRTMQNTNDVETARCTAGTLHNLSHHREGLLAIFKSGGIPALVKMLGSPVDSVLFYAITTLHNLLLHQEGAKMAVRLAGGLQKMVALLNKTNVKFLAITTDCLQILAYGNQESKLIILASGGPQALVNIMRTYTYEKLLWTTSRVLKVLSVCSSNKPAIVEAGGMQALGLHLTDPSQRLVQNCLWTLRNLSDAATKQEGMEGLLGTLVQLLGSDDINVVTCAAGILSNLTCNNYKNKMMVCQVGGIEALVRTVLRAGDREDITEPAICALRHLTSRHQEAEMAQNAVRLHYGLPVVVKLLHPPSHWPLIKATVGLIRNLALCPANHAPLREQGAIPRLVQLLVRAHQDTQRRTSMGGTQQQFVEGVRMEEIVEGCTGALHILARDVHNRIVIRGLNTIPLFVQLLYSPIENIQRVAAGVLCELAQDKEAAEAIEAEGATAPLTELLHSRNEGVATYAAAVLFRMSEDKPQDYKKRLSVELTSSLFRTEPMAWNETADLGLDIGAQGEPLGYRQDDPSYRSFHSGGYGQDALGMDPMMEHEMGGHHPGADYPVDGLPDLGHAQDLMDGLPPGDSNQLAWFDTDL
- experiment summary: AlphaScreen competitive inhibition assay of the β-catenin/BCL9 PPI
- Assay type: binding
- experimental parameters: Table 11, inhibitors 107-108, racemic; read-out: Ki ± SD
outcome measure: Ki

Reported Ki for COC(=O)C(C)(C)Oc1cccc(N2CCCC(C(=O)N(Cc3ccc(-c4cccs4)cc3)C3CC3)C2)c1 (racemic) : what is it? > 90 µM

----------
Assignment: determine reported pKi for the given molecules.
- measured on: β-catenin/BCL9 PPI (Homo sapiens)
- Construct: Full-length β-catenin (residues 1-781) were cloned into a pET-28b vector; made in house; host or cells: E. coli BL21 DE3 (β-catenin); BCL9 peptide synthesized by InnoPep Inc
- experiment summary: AlphaScreen competitive inhibition assay of the β-catenin/BCL9 PPI
- Format: binding
- experimental parameters: Table 2, inhibitors 15-26; read-out: Ki
- Method: AlphaScreen Assays of β-Catenin and BCL9 Interaction. Experiments were performed in white opaque 384-well plates from PerkinElmer (Waltham, Mass.), and the samples were read on a Synergy 2 plate reader (Biotek, Winooski, Vt.) with excitation at 680 nm and emission at 570 nm. […] For the β-catenin/BCL9 assay, 5 nM biotinylated BCL9 and 40 nM His6-tagged β-catenin were incubated in assay buffer at 4° C. for 30 min. […] The IC50 value was determined by nonlinear least-square analysis of GraphPad Prism 5.0. […]
pKi: −log10 of the molar value.

Reported pKi for `CC(C)c1ccc(CN(C(=O)[C@@H]2CCCN(c3cccc(OC(C)(C)C(=O)N4CCNCC4)c3)C2)C(C)C)cc1` : what is it? ≥ 5.00

Reported pKi for `CCN(Cc1ccc(C(C)C)cc1)C(=O)[C@H]1CCCN(c2cccc(OC(C)(C)C(=O)N3CCNCC3)c2)C1` : what is it? ≥ 4.52

Reported pKi for `CCN(Cc1ccc(C(C)C)cc1)C(=O)[C@@H]1CCCN(c2cccc(OC(C)(C)C(=O)N3CCNCC3)c2)C1` : what is it? ≥ 4.52

Reported pKi for `CC(C)c1ccc(COC(=O)[C@H]2CCCN(c3cccc(OC(C)(C)C(=O)N4CCNCC4)c3)C2)cc1` : what is it? ≥ 5.00

Reported pKi for `CC(C)c1ccc(COC(=O)[C@@H]2CCCN(c3cccc(OC(C)(C)C(=O)N4CCNCC4)c3)C2)cc1` : what is it? ≥ 5.00

Reported pKi for `CC(C)c1ccc(CN(C)C(=O)[C@H]2CCCN(c3cccc(OC(C)(C)C(=O)N4CCNCC4)c3)C2)cc1` : what is it? ≥ 5.00

Reported pKi for `CC(C)c1ccc(CN(C(=O)[C@H]2CCCN(c3cccc(OC(C)(C)C(=O)N4CCNCC4)c3)C2)C(C)C)cc1` : what is it? ≥ 5.00

----------
- measured on: β-catenin/BCL9 PPI (Homo sapiens, UniProt P35222)
- Construct: Full-length β-catenin (residues 1-781) were cloned into a pET-28b vector; made in house; host or cells: E. coli BL21 DE3 (β-catenin); BCL9 peptide synthesized by InnoPep Inc
- experiment summary: AlphaScreen competitive inhibition assay of the β-catenin/BCL9 PPI
- Type: binding
- experimental parameters: Table 8, inhibitors 82-92; read-out: Ki
Assignment: determine reported Ki for the given compounds.

Reported Ki for `O=C([C@@H]1CCCN(c2cccc(OC3(C(=O)N4CCNCC4)CCCC3)c2)C1)N(Cc1ccc(-c2cn[nH]c2)cc1)C1CC1` : what is it? < 90 µM

Reported Ki for O=C(C(Cc1ccccc1)Oc1cccc(N2CCC[C@@H](C(=O)N(Cc3ccc(-c4cn[nH]c4)cc3)C3CC3)C2)c1)N1CCNCC1 (stereo partly drawn) : what is it? < 90 µM

Reported Ki for `CC(C)c1ccc2c(c1)CCN(C(=O)[C@@H]1CCCN(c3cccc(OC(C)(C)C(=O)N4CCNCC4)c3)C1)C2` : what is it? < 30 µM

Reported Ki for `CC(C)(Oc1cccc(N2CCC[C@@H](C(=O)N3CCc4cc(-c5cn[nH]c5)ccc4C3)C2)c1)C(=O)N1CCNCC1` : what is it? < 90 µM

Reported Ki for `CC(C)(Oc1cccc(N2CCC[C@@H](C(=O)N(Cc3ccc(-c4cn[nH]c4)cc3OCCN)C3CC3)C2)c1)C(=O)N1CCNCC1` : what is it? < 90 µM

Reported Ki for `O=C(c1cccc(N2CCC[C@@H](C(=O)N(Cc3ccc(-c4cn[nH]c4)cc3)C3CC3)C2)c1)N1CCNCC1` : what is it? < 90 µM

Reported Ki for `O=C([C@@H]1CCCN(c2cccc(OC3(C(=O)N4CCNCC4)CC3)c2)C1)N(Cc1ccc(-c2cn[nH]c2)cc1)C1CC1` : what is it? < 10 µM

Reported Ki for O=C(C(Oc1cccc(N2CCC[C@@H](C(=O)N(Cc3ccc(-c4cn[nH]c4)cc3)C3CC3)C2)c1)c1ccccc1)N1CCNCC1 (stereo partly drawn) : what is it? < 30 µM

Reported Ki for `CC(C)(Oc1cccc(N2CCC[C@@H](C(=O)N3CCc4cc(-c5ccccc5)ccc4C3)C2)c1)C(=O)N1CCNCC1` : what is it? < 5 µM

----------
- measured on: β-catenin/BCL9 PPI (Homo sapiens, UniProt P35222)
- Construct: Full-length β-catenin (residues 1-781) were cloned into a pET-28b vector; made in house; host or cells: E. coli BL21 DE3 (β-catenin); BCL9 peptide synthesized by InnoPep Inc
- experiment summary: AlphaScreen competitive inhibition assay of the β-catenin/BCL9 PPI
- Format: binding
- experimental parameters: Table 1, inhibitors 1-14; read-out: Ki
- Protocol: AlphaScreen Assays of β-Catenin and BCL9 Interaction. Experiments were performed in white opaque 384-well plates from PerkinElmer (Waltham, Mass.), and the samples were read on a Synergy 2 plate reader (Biotek, Winooski, Vt.) with excitation at 680 nm and emission at 570 nm. […] For the β-catenin/BCL9 assay, 5 nM biotinylated BCL9 and 40 nM His6-tagged β-catenin were incubated in assay buffer at 4° C. for 30 min. […] The IC50 value was determined by nonlinear least-square analysis of GraphPad Prism 5.0. […]
pKi: −log10 of the molar value.
outcome measure: pKi

Reported pKi for CC(C)c1ccc(CN(C(=O)[C@@H]2CCCN(c3cccc(OC(C)(C)C(=O)O)c3)C2)C(C)C)cc1 [Compound 9] : what is it? < 4.05

Reported pKi for CCN(Cc1ccc(C(C)C)cc1)C(=O)[C@@H]1CCCN(c2cccc(OC(C)(C)C(=O)O)c2)C1 [Compound 7] : what is it? < 4.05

Reported pKi for CC(C)c1ccc(COC(=O)[C@H]2CCCN(c3cccc(OC(C)(C)C(=O)O)c3)C2)cc1 [Compound 2] : what is it? < 4.05

Reported pKi for CC(C)c1ccc(CNC(=O)[C@H]2CCCN(c3cccc(OC(C)(C)C(=O)O)c3)C2)cc1 [Compound 4] : what is it? < 4.05

Reported pKi for CC(C)c1ccc(COC(=O)[C@@H]2CCCN(c3cccc(OC(C)(C)C(=O)O)c3)C2)cc1 [Compound 1] : what is it? < 4.05

Reported pKi for CC(C)c1ccc(CNC(=O)[C@@H]2CCCN(c3cccc(OC(C)(C)C(=O)O)c3)C2)cc1 [Compound 3] : what is it? ≥ 4.30

Reported pKi for CC(C)c1ccc(CCNC(=O)[C@@H]2CCCN(c3cccc(OC(C)(C)C(=O)O)c3)C2)cc1 [Compound 13] : what is it? ≥ 4.30
